Ref: the supplement of paper PMC7125110

B1: glmS ribozyme (parent)
chain: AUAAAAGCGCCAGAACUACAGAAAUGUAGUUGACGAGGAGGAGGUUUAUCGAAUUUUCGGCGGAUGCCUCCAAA

Variants of: B1
procedureText: self-cleavage kobs at 40 uM GlcN6P; higher = faster cleavage; RNA array
experimentalSetup: with glucosamine-6-phosphate
This sample holds only a part of the variants without activity.
Provide the reported self-cleavage kobs at 40 uM GlcN6P of each item.

So, G43U A52G ? Its self-cleavage kobs at 40 uM GlcN6P was < 1e-05 s⁻¹

So, A6G G32C C34G C71U ? Its self-cleavage kobs at 40 uM GlcN6P was < 1e-05 s⁻¹

So, G38U U54C ? Its self-cleavage kobs at 40 uM GlcN6P was < 1e-05 s⁻¹

So, A12U G38C A52G C58A ? Its self-cleavage kobs at 40 uM GlcN6P was < 1e-05 s⁻¹

So, G44C U55G C70U ? Its self-cleavage kobs at 40 uM GlcN6P was < 1e-05 s⁻¹

So, C10G A42G ? Its self-cleavage kobs at 40 uM GlcN6P was < 1e-05 s⁻¹

So, C11G A39U G60A ? Its self-cleavage kobs at 40 uM GlcN6P was < 1e-05 s⁻¹

So, A6C A52C ? Its self-cleavage kobs at 40 uM GlcN6P was < 1e-05 s⁻¹

So, U31G A53G ? Its self-cleavage kobs at 40 uM GlcN6P was 0.000276 s⁻¹

So, A6G C61U ? Its self-cleavage kobs at 40 uM GlcN6P was < 1e-05 s⁻¹

So, C8G G9A A39U U47G C68U ? Its self-cleavage kobs at 40 uM GlcN6P was < 1e-05 s⁻¹

So, A14U U30G C34U G40A A52G C68G ? Its self-cleavage kobs at 40 uM GlcN6P was < 1e-05 s⁻¹

So, C8A G38C C71A ? Its self-cleavage kobs at 40 uM GlcN6P was < 1e-05 s⁻¹

So, C8G C67U ? Its self-cleavage kobs at 40 uM GlcN6P was < 1e-05 s⁻¹

So, C11A A12G U65A C67G ? Its self-cleavage kobs at 40 uM GlcN6P was 0.000126 s⁻¹

So, C19A G51A ? Its self-cleavage kobs at 40 uM GlcN6P was < 1e-05 s⁻¹

So, A12U U46C ? Its self-cleavage kobs at 40 uM GlcN6P was 0.000227 s⁻¹

So, A42G U54G ? Its self-cleavage kobs at 40 uM GlcN6P was 0.00111 s⁻¹

So, A12U U47G C70G ? Its self-cleavage kobs at 40 uM GlcN6P was 6.36e-05 s⁻¹

So, G41A A48U C68A ? Its self-cleavage kobs at 40 uM GlcN6P was < 1e-05 s⁻¹

So, A33G A39U ? Its self-cleavage kobs at 40 uM GlcN6P was < 1e-05 s⁻¹

So, A15G U56A ? Its self-cleavage kobs at 40 uM GlcN6P was 0.000313 s⁻¹

So, U49G C71U ? Its self-cleavage kobs at 40 uM GlcN6P was 3.07e-05 s⁻¹

So, U45G A53G ? Its self-cleavage kobs at 40 uM GlcN6P was 0.000258 s⁻¹

So, A39G A64G ? Its self-cleavage kobs at 40 uM GlcN6P was 0.000853 s⁻¹

So, G13A U46C G59A ? Its self-cleavage kobs at 40 uM GlcN6P was < 1e-05 s⁻¹

So, A15C A52U A53G U56C ? Its self-cleavage kobs at 40 uM GlcN6P was < 1e-05 s⁻¹

So, U31A U65A ? Its self-cleavage kobs at 40 uM GlcN6P was 2.41e-05 s⁻¹

So, U31G A39G ? Its self-cleavage kobs at 40 uM GlcN6P was 0.0004 s⁻¹

So, G41C U49A ? Its self-cleavage kobs at 40 uM GlcN6P was < 1e-05 s⁻¹

So, C10G G35A ? Its self-cleavage kobs at 40 uM GlcN6P was < 1e-05 s⁻¹

So, U54G G62U ? Its self-cleavage kobs at 40 uM GlcN6P was < 1e-05 s⁻¹

So, G13U G41C U46G C50G ? Its self-cleavage kobs at 40 uM GlcN6P was < 1e-05 s⁻¹

So, A12C G38C A42U ? Its self-cleavage kobs at 40 uM GlcN6P was < 1e-05 s⁻¹

So, G41A G62U C67G ? Its self-cleavage kobs at 40 uM GlcN6P was < 1e-05 s⁻¹

So, G9A U31G A39G A48C G60C ? Its self-cleavage kobs at 40 uM GlcN6P was < 1e-05 s⁻¹

So, A39U G44A C71A ? Its self-cleavage kobs at 40 uM GlcN6P was < 1e-05 s⁻¹

So, C16A A52C ? Its self-cleavage kobs at 40 uM GlcN6P was < 1e-05 s⁻¹

So, A39U G40U C70U ? Its self-cleavage kobs at 40 uM GlcN6P was 9.82e-05 s⁻¹

So, A52G C71U ? Its self-cleavage kobs at 40 uM GlcN6P was 2.74e-05 s⁻¹

So, U45A U56C ? Its self-cleavage kobs at 40 uM GlcN6P was 7.22e-05 s⁻¹

So, A53U G60A ? Its self-cleavage kobs at 40 uM GlcN6P was < 1e-05 s⁻¹

So, U30G A33U G60A ? Its self-cleavage kobs at 40 uM GlcN6P was < 1e-05 s⁻¹

So, A6C U69C ? Its self-cleavage kobs at 40 uM GlcN6P was < 1e-05 s⁻¹

So, U46A U49C ? Its self-cleavage kobs at 40 uM GlcN6P was < 1e-05 s⁻¹

So, A15C U65G ? Its self-cleavage kobs at 40 uM GlcN6P was 3.62e-05 s⁻¹

So, G62C U65C ? Its self-cleavage kobs at 40 uM GlcN6P was < 1e-05 s⁻¹

So, C10A A14C A42C G63A ? Its self-cleavage kobs at 40 uM GlcN6P was < 1e-05 s⁻¹

So, G43U G51A U65G G66A ? Its self-cleavage kobs at 40 uM GlcN6P was < 1e-05 s⁻¹

So, C11A A53U U57G C71A ? Its self-cleavage kobs at 40 uM GlcN6P was 0.000108 s⁻¹

So, G13U G37A ? Its self-cleavage kobs at 40 uM GlcN6P was < 1e-05 s⁻¹

So, G40A U56A ? Its self-cleavage kobs at 40 uM GlcN6P was 9.01e-05 s⁻¹

So, C50A C68G ? Its self-cleavage kobs at 40 uM GlcN6P was 2.54e-05 s⁻¹

So, A36C G62C ? Its self-cleavage kobs at 40 uM GlcN6P was < 1e-05 s⁻¹

So, G35C A42U U45C G59U ? Its self-cleavage kobs at 40 uM GlcN6P was < 1e-05 s⁻¹

So, A14C G60C ? Its self-cleavage kobs at 40 uM GlcN6P was < 1e-05 s⁻¹

So, G43U C61A ? Its self-cleavage kobs at 40 uM GlcN6P was < 1e-05 s⁻¹

So, A53G U54C ? Its self-cleavage kobs at 40 uM GlcN6P was 0.000508 s⁻¹

So, U54A U56G ? Its self-cleavage kobs at 40 uM GlcN6P was 0.000226 s⁻¹

So, U45A C71G ? Its self-cleavage kobs at 40 uM GlcN6P was 0.000108 s⁻¹

So, U45A G66U ? Its self-cleavage kobs at 40 uM GlcN6P was 4.15e-05 s⁻¹

So, G40C U57A ? Its self-cleavage kobs at 40 uM GlcN6P was < 1e-05 s⁻¹

So, G63U U65G ? Its self-cleavage kobs at 40 uM GlcN6P was < 1e-05 s⁻¹

So, U31G A53U ? Its self-cleavage kobs at 40 uM GlcN6P was 0.000188 s⁻¹

So, U49C C70U ? Its self-cleavage kobs at 40 uM GlcN6P was < 1e-05 s⁻¹

So, U54G U56A G66A ? Its self-cleavage kobs at 40 uM GlcN6P was 0.000108 s⁻¹

So, G43U C50G U54G A64U C71U ? Its self-cleavage kobs at 40 uM GlcN6P was 7.77e-05 s⁻¹

So, C16U A64G ? Its self-cleavage kobs at 40 uM GlcN6P was 0.000665 s⁻¹

So, U31A U46A C61U C70U ? Its self-cleavage kobs at 40 uM GlcN6P was < 1e-05 s⁻¹

So, U47G A64C ? Its self-cleavage kobs at 40 uM GlcN6P was < 1e-05 s⁻¹

So, A39G G66A ? Its self-cleavage kobs at 40 uM GlcN6P was 0.000706 s⁻¹

So, C11G A36G ? Its self-cleavage kobs at 40 uM GlcN6P was < 1e-05 s⁻¹

So, G13U G32A ? Its self-cleavage kobs at 40 uM GlcN6P was 4.41e-05 s⁻¹

So, G43U C70U ? Its self-cleavage kobs at 40 uM GlcN6P was < 1e-05 s⁻¹

So, A14G G40U C58G G60A ? Its self-cleavage kobs at 40 uM GlcN6P was < 1e-05 s⁻¹

So, A53G C68U ? Its self-cleavage kobs at 40 uM GlcN6P was 0.000296 s⁻¹

So, U55G C58A G60C C61G C67A ? Its self-cleavage kobs at 40 uM GlcN6P was < 1e-05 s⁻¹

So, G7C A64U ? Its self-cleavage kobs at 40 uM GlcN6P was < 1e-05 s⁻¹

So, C11A A42G U56A ? Its self-cleavage kobs at 40 uM GlcN6P was < 1e-05 s⁻¹

So, G29C G35U C58U ? Its self-cleavage kobs at 40 uM GlcN6P was < 1e-05 s⁻¹

So, A12C A36G A64C ? Its self-cleavage kobs at 40 uM GlcN6P was < 1e-05 s⁻¹

So, G32A U45A ? Its self-cleavage kobs at 40 uM GlcN6P was 9.16e-05 s⁻¹
